Numbers sourced from paper PMC10400981.

target: m4D2; construct: monoheme redesign of 4D2; assay: hemin titration of apo-m4D2 by UV/visible; nondenaturing MS ([…]); format: binding, synthetic construct
observation type: Kd
Numeric answer plus unit only.

Form: compound = C=CC1=C(C)C2=Cc3c(C=C)c(C)c4[n]3[Fe][n]3c(c(C)c(CCC(=O)O)c3=CC3=NC(=C4)C(C)=C3CCC(=O)O)=CC1=N2 ; Kd = 4.2 nM
